Molecular target: Cytochrome P450 2C9 (Homo sapiens) (UniProt P11712)
Sequence (P11712 whole entry, looked up): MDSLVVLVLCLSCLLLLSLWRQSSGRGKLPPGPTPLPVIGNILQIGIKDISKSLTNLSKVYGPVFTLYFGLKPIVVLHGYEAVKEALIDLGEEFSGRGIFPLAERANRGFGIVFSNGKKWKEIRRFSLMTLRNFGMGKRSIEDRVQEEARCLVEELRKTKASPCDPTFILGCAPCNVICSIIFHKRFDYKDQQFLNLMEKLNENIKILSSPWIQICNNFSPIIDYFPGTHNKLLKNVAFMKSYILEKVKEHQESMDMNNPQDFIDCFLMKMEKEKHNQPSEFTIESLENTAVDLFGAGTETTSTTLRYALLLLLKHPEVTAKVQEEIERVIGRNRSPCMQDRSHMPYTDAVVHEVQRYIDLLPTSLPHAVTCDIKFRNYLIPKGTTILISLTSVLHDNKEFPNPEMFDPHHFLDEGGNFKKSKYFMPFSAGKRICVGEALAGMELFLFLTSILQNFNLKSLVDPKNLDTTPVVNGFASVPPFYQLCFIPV
Experiment: Cytochrome panel assay with activity outcomes; also: % is scaled to controls: 0 for no effect and ±100 for the full control effect
Settings: recombinant CYP, pro-luciferin dealkylation, luminescence, p450-cyp2c9; series mostly up to 57.1 µM
The whole screen tested about 16,000 compounds, of which about 4,000 (25%) were called active. About 26% were inconclusive and are not listed. These entries were drawn from the full list.
measurementType: activity, negative = inhibition

Sample answers from the record:
compound	val
CCC(=O)Nc1ccc(N2CCN(CC)CC2)c(Cl)c1	inactive
CCc1ccccc1NC(=O)NC1CC2CCC(C1)N2Cc1cccs1 (stereo not given)	inactive
N#Cc1ccc(CN2CCC3(CC2)CCN(C(=O)Oc2ccccc2)CC3)cc1	inactive
CC[N+](CC)(CCNC(=O)C(=O)NCC[N+](CC)(CC)Cc1ccccc1Cl)Cc1ccccc1Cl	inactive
CN(C)CS/C(N)=N/[C@H](O)C(Cl)(Cl)Cl	-28.6% [at 11.4 µM] (inactive)

Enquiry: Hi! What's the reported activity, negative = inhibition for "C[N+](C)(C)CC#CCN1CCCC1=O" on Cytochrome P450 2C9 (Homo sapiens) (UniProt P11712)?
Return: inactive

Enquiry: Hi! What's the reported activity, negative = inhibition for "N[C@@H]1C=CC=C(C(=O)O)C1" on Cytochrome P450 2C9 (Homo sapiens) (UniProt P11712)?
Return: inactive

Enquiry: Hi! What's the reported activity, negative = inhibition for "O=C(Nc1ccccc1)N1CC2(CCN(C(=O)Oc3ccccc3)CC2)C1" on Cytochrome P450 2C9 (Homo sapiens) (UniProt P11712)?
Return: inactive

Enquiry: Hi! What's the reported activity, negative = inhibition for "C[Se]C[C@@H](N)C(=O)O" on Cytochrome P450 2C9 (Homo sapiens) (UniProt P11712)?
Return: inactive

Enquiry: Hi! What's the reported activity, negative = inhibition for "c1ccc2c(c1)Sc1ccccc1N2C[C@H]1CN2CCC1CC2" on Cytochrome P450 2C9 (Homo sapiens) (UniProt P11712)?
Return: 8.95% [at 11.4 µM] (inactive)

Enquiry: Hi! What's the reported activity, negative = inhibition for "C[C@@H](Cc1ccccc1)NCCC(c1ccccc1)c1ccccc1" on Cytochrome P450 2C9 (Homo sapiens) (UniProt P11712)?
Return: inactive

Enquiry: Hi! What's the reported activity, negative = inhibition for "O=C(O)Cc1ccc([N+](=O)[O-])cc1[N+](=O)[O-]" on Cytochrome P450 2C9 (Homo sapiens) (UniProt P11712)?
Return: 11.5% [at 11.4 µM] (inactive)

Enquiry: Hi! What's the reported activity, negative = inhibition for "CC[C@@]1(c2ccc(N)cc2)CCC(=O)NC1=O" on Cytochrome P450 2C9 (Homo sapiens) (UniProt P11712)?
Return: inactive

Enquiry: Hi! What's the reported activity, negative = inhibition for "CN1[C@@H](C[C@@H](O)c2ccccc2)CCC[C@@H]1C[C@H](O)c1ccccc1" on Cytochrome P450 2C9 (Homo sapiens) (UniProt P11712)?
Return: inactive

Enquiry: Hi! What's the reported activity, negative = inhibition for "CN(C)CCCc1c[nH]c2ccccc12" on Cytochrome P450 2C9 (Homo sapiens) (UniProt P11712)?
Return: -1.95% [at 11.4 µM] (inactive)

Enquiry: Hi! What's the reported activity, negative = inhibition for "C=C[C@@H]1CN2CC[C@H]1C[C@H]2[C@H](O)c1ccnc2ccccc12" on Cytochrome P450 2C9 (Homo sapiens) (UniProt P11712)?
Return: -2.06% [at 11.4 µM] (inactive)

Enquiry: Hi! What's the reported activity, negative = inhibition for "C=C(C)CN1CC[C@@]23c4c5ccc(O)c4O[C@H]2c2[nH]c4ccccc4c2C[C@]3(O)[C@@H]1C5" on Cytochrome P450 2C9 (Homo sapiens) (UniProt P11712)?
Return: inactive

Enquiry: Hi! What's the reported activity, negative = inhibition for "C=CCN1CC[C@@]23c4c5ccc(O)c4O[C@H]2/C(=N\N=C2/CC[C@@]4(O)[C@H]6Cc7ccc(O)c8c7[C@@]4(CCN6CC=C)[C@@H]2O8)CC[C@]3(O)[C@@H]1C5" on Cytochrome P450 2C9 (Homo sapiens) (UniProt P11712)?
Return: inactive

Enquiry: Hi! What's the reported activity, negative = inhibition for "Cn1ccnc1" on Cytochrome P450 2C9 (Homo sapiens) (UniProt P11712)?
Return: inactive

* * *

Target: Cytochrome P450 2C9 (Homo sapiens)
Assay: Cytochrome panel assay with activity outcomes; also: % is scaled to controls: 0 for no effect and ±100 for the full control effect
Settings: recombinant CYP, pro-luciferin dealkylation, luminescence, p450-cyp2c9; series mostly up to 57.1 µM
Hit rate of the full screen: of about 16,000 compounds, about 4,000 (25%) were called active. Inconclusive results (about 26%) are left out. Not all results are given here.
measurementType: activity, negative = inhibition

compound	studyTarget	activity, negative = inhibition
O=c1[nH]c(=O)n(CCC2=CCCCC2)c(O)c1C=Nc1cccc(F)c1	Cytochrome P450 2C9 (Homo sapiens)	inactive
CCCCN(CCCC)CCC(O)c1cc2c(Cl)cc(Cl)cc2c2cc(C(F)(F)F)ccc12 (centres undefined)	Cytochrome P450 2C9 (Homo sapiens)	inactive
O=C(O)C[C@H]1NCc2cc3ccccc3nc21	Cytochrome P450 2C9 (Homo sapiens)	-0.422% [at 11.4 µM] (inactive)
COc1cc2c(cc1OC)[C@@H]1C(=O)c3ccc4c(c3O[C@@H]1CO2)C=CC(C)(C)O4	Cytochrome P450 2C9 (Homo sapiens)	inactive
CCCCCCCC/C=C\CCCCCCCC(N)=O	Cytochrome P450 2C9 (Homo sapiens)	inactive
C[C@@]12CC[C@@H]3[C@H](CCC4=CC(=O)CC[C@]43C)[C@@H]1CC[C@@H]2C(=O)COS(=O)(=O)c1ccc(Br)cc1	Cytochrome P450 2C9 (Homo sapiens)	-18.3% [at 11.4 µM] (inactive)

Enquiry: Fill in: activity, negative = inhibition of "COC(=O)NC/C=C\c1nc(CC/C=C\C(=O)O[C@H]2C[C@H]3CC(=O)O[C@@H](/C=C\CC(C)C)C[C@@H]4CC[C@H](C)[C@H](C[C@@H](OC)C[C@H](C2)O3)O4)co1" is ___
Return: -4% [at 11.4 µM] (inactive)

Enquiry: Fill in: activity, negative = inhibition of "O=C(CCCN1CCC2(CC1)C(=O)NCN2c1ccccc1)c1ccc(F)cc1" is ___
Return: inactive

Enquiry: Fill in: activity, negative = inhibition of "CCN1CCC2(CC1)NC(CO)(CO)CO2" is ___
Return: inactive

* * *

Biological target: Cytochrome P450 2C9 (Homo sapiens) (UniProt P11712)
Experiment: Cytochrome panel assay with activity outcomes; also: % is scaled to controls: 0 for no effect and ±100 for the full control effect
Settings: recombinant CYP, pro-luciferin dealkylation, luminescence, p450-cyp2c9; series mostly up to 57.1 µM
Screen size: about 16,000 compounds; about 4,000 (25%) were called active. Inconclusive results (about 26%) are left out. Not all results are given here.
measurementType: activity, negative = inhibition

Sample answers from the record:
compound	val
C[C@]12CC[C@H]3c4ccc(O)cc4CC[C@@H]3[C@H]1CC[C@@H]2OP(=O)(O)O	12.3% [at 11.4 µM] (inactive)
C[C@@]12CC[C@@H]3c4ccc(O)cc4C[C@H](CCCCCCCCCS(=O)CCCC(F)(F)C(F)(F)F)[C@H]3[C@@H]1CC[C@@H]2O (stereo not given in full)	inactive
COc1cc(CCN)ccc1O	inactive
CCc1ccccc1NC(=S)NC1CC2CCC(C1)N2Cc1ccco1 (stereo not given)	inactive

// switching to the query compound
Enquiry: Fill in: activity, negative = inhibition of "COc1cc([C@@H](O)CN)ccc1O" is ___
Return: inactive

* * *

Target: Cytochrome P450 2C9 (Homo sapiens)
Test: Cytochrome panel assay with activity outcomes; also: % is scaled to controls: 0 for no effect and ±100 for the full control effect
Details: recombinant CYP, pro-luciferin dealkylation, luminescence, p450-cyp2c9; series mostly up to 57.1 µM
The campaign covered roughly 16,000 compounds. About 4,000 (25%) were called active. About 26% were inconclusive and are not listed. A selection follows.
measurementType: activity, negative = inhibition

Sample answers from the record:
compound	activity, negative = inhibition
O=c1cc(-c2ccc(O)cc2)oc2c([C@H]3O[C@@H](CO)[C@@H](O)[C@@H](O)[C@@H]3O)c(O)cc(O)c12	inactive
NC[C@@H](CC(=O)O)c1ccc(Cl)cc1	inactive
CCCN(CCC)[C@@H]1CCc2cccc(O)c2C1	inactive
CCN1CCN(c2ccc(NC(=O)C(C)C)cc2Cl)CC1	inactive

Enquiry: Fill in: activity, negative = inhibition of C[C@@H]1[C@@H](C)N1C[C@H](O)Cn1ccnc1[N+](=O)[O-] (stereo partly specified) is ___
Return: 21.8% [at 11.4 µM] (inactive)

Enquiry: Fill in: activity, negative = inhibition of "CN1C(=O)CCS(=O)(=O)[C@H]1c1ccc(Cl)cc1" is ___
Return: inactive

Enquiry: Fill in: activity, negative = inhibition of "N[C@@]1(C(=O)O)CC[C@H](C(=O)O)C1" is ___
Return: inactive

Enquiry: Fill in: activity, negative = inhibition of "O=c1cc(-c2ccc(O)c(O)c2)oc2cc(O)cc(O)c12" is ___
Return: inactive

Enquiry: Fill in: activity, negative = inhibition of "COC1=CC(=O)O[C@@H](/C=C\c2ccccc2)C1" is ___
Return: inactive

# credit: PubChem BioAssay AID1851
